Where do these numbers come from? They come from PubChem BioAssay.

Below, each entry is listed with its recorded composite z-score.
- Procedure summary: COS7 lysate on small-molecule microarray, probe aHis, 635 nm (AID 1123);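 further: z-score combines 667nm fluorescence intensity with signal-to-noise per printed compound spot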
- Study conditions: COS7 cell lysate, fluorescence, higher = more signal

Please review the following examples before continuing.
CC(C)N1C(=O)[C@@]2(Cc3ccccc31)c1ccccc1C(=O)N(Cc1ccccc1Cl)[C@H]2c1ccc(CO)cc1 : -0.472
CCCC#C[Si](O[C@H](CC)c1cn(Cc2cccc(Cl)c2)nn1)(C(C)C)C(C)C : 1.03
C=CCNC(=O)[C@H]1[C@@H]2C(=O)O[C@@H](c3ccccc3)[C@@H](c3ccccc3)N2[C@@H](c2ccccc2OCCO)[C@]12C(=O)Nc1ccc(C#CCC(C(=O)OC)C(=O)OC)cc12 : 2.23
OCCCC1=CC(c2cccs2)N(Cc2cc3c(cc2Br)OCO3)CC1 (stereo not drawn) : 0.713
COc1cc(COC(C)=O)ccc1OC(C)=O : 0.279
CCOC(=O)C[C@H]1[C@H](OC(=O)c2ccc(C(=O)c3ccccc3)cc2)[C@@H](NC(=O)c2ccc3ccccc3c2)c2cc(OCCCO)ccc2N1C(=O)Cc1ccc(OC)cc1 : 0.899

q: # input molecule: CN1C(=O)C2C=CC(C(O)c3ccco3)N(Nc3ccccc3)C2C1=O (stereo not drawn) ; wanted: its composite z-score
a: -0.039

q: I'd like to know its composite z-score. The molecule in question is CN1C=C(C(=O)OCCS(C)(=O)=O)C(C(=O)OCCS(C)(=O)=O)=CC(c2ccc(CO)cc2)=CC1C1CC1 (stereo not drawn)
a: 0.951
